Conditions: 286.65 K; 101.33 kPa; Liquid; Vibrating tube method
endpoint: mass density (kg/m3)

CCC(=O)[O-].C[NH2+]CCO [2-hydroxy-N-methylethanaminium propionate] : 1078.76
C[NH2+]CCO.O=C[O-] [2-hydroxy-N-methylethanaminium formate] : 1134.67
CC(=O)[O-].C[NH2+]CCO [N-methyl-2-hydroxyethylammonium acetate] : 1107.71
CC(C)C(=O)[O-].C[NH2+]CCO [2-hydroxy-N-methylethanaminium isobutyrate] : 1050.66
CCCC(=O)[O-].C[NH2+]CCO [N-methyl-2-hydroxyethylammonium butanoate] : 1047.01
CCCCC(=O)[O-].C[NH2+]CCO [2-hydroxy-N-methylethanaminium pentanoate] : 1023.99

---

Conditions: 298.4 K; 101.33 kPa; Liquid; Vibrating tube method
endpoint: mass density (kg/m3)

CCCCC(=O)[O-].C[NH2+]CCO [2-hydroxy-N-methylethanaminium pentanoate] : 1016.03
CCCC(=O)[O-].C[NH2+]CCO [N-methyl-2-hydroxyethylammonium butanoate] : 1039.08
CCC(=O)[O-].C[NH2+]CCO [2-hydroxy-N-methylethanaminium propionate] : 1071.11
CC(=O)[O-].C[NH2+]CCO [N-methyl-2-hydroxyethylammonium acetate] : 1100.67
C[NH2+]CCO.O=C[O-] [2-hydroxy-N-methylethanaminium formate] : 1128.11
CC(C)C(=O)[O-].C[NH2+]CCO [2-hydroxy-N-methylethanaminium isobutyrate] : 1043.2

---

Settings: 300.15 K; 101.33 kPa; Liquid; Vibrating tube method
endpoint: mass density (kg/m3)

CC(=O)[O-].C[NH2+]CCO [N-methyl-2-hydroxyethylammonium acetate] : 1099.63
C[NH2+]CCO.O=C[O-] [2-hydroxy-N-methylethanaminium formate] : 1127.13
CCC(=O)[O-].C[NH2+]CCO [2-hydroxy-N-methylethanaminium propionate] : 1069.99
CCCCC(=O)[O-].C[NH2+]CCO [2-hydroxy-N-methylethanaminium pentanoate] : 1014.85
CCCC(=O)[O-].C[NH2+]CCO [N-methyl-2-hydroxyethylammonium butanoate] : 1037.88
CC(C)C(=O)[O-].C[NH2+]CCO [2-hydroxy-N-methylethanaminium isobutyrate] : 1042.09

---

Settings: 303.15 K; 101.33 kPa; Liquid; Pulse-echo method
endpoint: speed of sound (m/s)

CCCC(=O)[O-].C[NH2+]CCO [N-methyl-2-hydroxyethylammonium butanoate] : 1598.7
CCCCC(=O)[O-].C[NH2+]CCO [2-hydroxy-N-methylethanaminium pentanoate] : 1533.1
CCC(=O)[O-].C[NH2+]CCO [2-hydroxy-N-methylethanaminium propionate] : 1675.2
C[NH2+]CCO.O=C[O-] [2-hydroxy-N-methylethanaminium formate] : 1805.6
CC(C)C(=O)[O-].C[NH2+]CCO [2-hydroxy-N-methylethanaminium isobutyrate] : 1597.2

---

Conditions: 282.15 K; 101.33 kPa; Liquid; Vibrating tube method
endpoint: mass density (kg/m3)

CCCC(=O)[O-].C[NH2+]CCO [N-methyl-2-hydroxyethylammonium butanoate] : 1050.02
CCCCC(=O)[O-].C[NH2+]CCO [2-hydroxy-N-methylethanaminium pentanoate] : 1027.01
CC(=O)[O-].C[NH2+]CCO [N-methyl-2-hydroxyethylammonium acetate] : 1110.43
CC(C)C(=O)[O-].C[NH2+]CCO [2-hydroxy-N-methylethanaminium isobutyrate] : 1053.56
C[NH2+]CCO.O=C[O-] [2-hydroxy-N-methylethanaminium formate] : 1137.18
CCC(=O)[O-].C[NH2+]CCO [2-hydroxy-N-methylethanaminium propionate] : 1081.69

---

Conditions: 305.4 K; 101.33 kPa; Liquid; Vibrating tube method
endpoint: mass density (kg/m3)

CC(=O)[O-].C[NH2+]CCO [N-methyl-2-hydroxyethylammonium acetate] : 1096.49
CCC(=O)[O-].C[NH2+]CCO [2-hydroxy-N-methylethanaminium propionate] : 1066.59
C[NH2+]CCO.O=C[O-] [2-hydroxy-N-methylethanaminium formate] : 1124.2
CCCC(=O)[O-].C[NH2+]CCO [N-methyl-2-hydroxyethylammonium butanoate] : 1034.38
CCCCC(=O)[O-].C[NH2+]CCO [2-hydroxy-N-methylethanaminium pentanoate] : 1011.37
CC(C)C(=O)[O-].C[NH2+]CCO [2-hydroxy-N-methylethanaminium isobutyrate] : 1038.71

---

Conditions: 320.91 K; 101.33 kPa; Liquid; Vibrating tube method
endpoint: mass density (kg/m3)

CCCCC(=O)[O-].C[NH2+]CCO [2-hydroxy-N-methylethanaminium pentanoate] : 1000.8
CCC(=O)[O-].C[NH2+]CCO [2-hydroxy-N-methylethanaminium propionate] : 1056.33
C[NH2+]CCO.O=C[O-] [2-hydroxy-N-methylethanaminium formate] : 1115.58
CCCC(=O)[O-].C[NH2+]CCO [N-methyl-2-hydroxyethylammonium butanoate] : 1023.82
CC(C)C(=O)[O-].C[NH2+]CCO [2-hydroxy-N-methylethanaminium isobutyrate] : 1028.54
CC(=O)[O-].C[NH2+]CCO [N-methyl-2-hydroxyethylammonium acetate] : 1087.02

---

Details: 290.65 K; 101.33 kPa; Liquid; Vibrating tube method
endpoint: mass density (kg/m3)

CCCC(=O)[O-].C[NH2+]CCO [N-methyl-2-hydroxyethylammonium butanoate] : 1044.33
CC(C)C(=O)[O-].C[NH2+]CCO [2-hydroxy-N-methylethanaminium isobutyrate] : 1048.09
CC(=O)[O-].C[NH2+]CCO [N-methyl-2-hydroxyethylammonium acetate] : 1105.28
CCC(=O)[O-].C[NH2+]CCO [2-hydroxy-N-methylethanaminium propionate] : 1076.15
CCCCC(=O)[O-].C[NH2+]CCO [2-hydroxy-N-methylethanaminium pentanoate] : 1021.3
C[NH2+]CCO.O=C[O-] [2-hydroxy-N-methylethanaminium formate] : 1132.44

---

Details: 307.65 K; 101.33 kPa; Liquid; Pulse-echo method
endpoint: speed of sound (m/s)

CCC(=O)[O-].C[NH2+]CCO [2-hydroxy-N-methylethanaminium propionate] : 1662
C[NH2+]CCO.O=C[O-] [2-hydroxy-N-methylethanaminium formate] : 1796.8
CCCC(=O)[O-].C[NH2+]CCO [N-methyl-2-hydroxyethylammonium butanoate] : 1584.6
CC(C)C(=O)[O-].C[NH2+]CCO [2-hydroxy-N-methylethanaminium isobutyrate] : 1584.5
CCCCC(=O)[O-].C[NH2+]CCO [2-hydroxy-N-methylethanaminium pentanoate] : 1519.1

---

Settings: 336.9 K; 101.33 kPa; Liquid; Vibrating tube method
endpoint: mass density (kg/m3)

CCC(=O)[O-].C[NH2+]CCO [2-hydroxy-N-methylethanaminium propionate] : 1045.44
CC(C)C(=O)[O-].C[NH2+]CCO [2-hydroxy-N-methylethanaminium isobutyrate] : 1017.7
CCCCC(=O)[O-].C[NH2+]CCO [2-hydroxy-N-methylethanaminium pentanoate] : 989.584
C[NH2+]CCO.O=C[O-] [2-hydroxy-N-methylethanaminium formate] : 1107.03
CC(=O)[O-].C[NH2+]CCO [N-methyl-2-hydroxyethylammonium acetate] : 1076.96
CCCC(=O)[O-].C[NH2+]CCO [N-methyl-2-hydroxyethylammonium butanoate] : 1012.58

---

Conditions: 294.4 K; 101.33 kPa; Liquid; Vibrating tube method
endpoint: mass density (kg/m3)

C[NH2+]CCO.O=C[O-] [2-hydroxy-N-methylethanaminium formate] : 1130.34
CCC(=O)[O-].C[NH2+]CCO [2-hydroxy-N-methylethanaminium propionate] : 1073.68
CCCC(=O)[O-].C[NH2+]CCO [N-methyl-2-hydroxyethylammonium butanoate] : 1041.79
CC(C)C(=O)[O-].C[NH2+]CCO [2-hydroxy-N-methylethanaminium isobutyrate] : 1045.74
CC(=O)[O-].C[NH2+]CCO [N-methyl-2-hydroxyethylammonium acetate] : 1103.02
CCCCC(=O)[O-].C[NH2+]CCO [2-hydroxy-N-methylethanaminium pentanoate] : 1018.76

---

Details: 334.66 K; 101.33 kPa; Liquid; Vibrating tube method
endpoint: mass density (kg/m3)

C[NH2+]CCO.O=C[O-] [2-hydroxy-N-methylethanaminium formate] : 1108.18
CCCC(=O)[O-].C[NH2+]CCO [N-methyl-2-hydroxyethylammonium butanoate] : 1014.18
CC(C)C(=O)[O-].C[NH2+]CCO [2-hydroxy-N-methylethanaminium isobutyrate] : 1019.24
CC(=O)[O-].C[NH2+]CCO [N-methyl-2-hydroxyethylammonium acetate] : 1078.39
CCC(=O)[O-].C[NH2+]CCO [2-hydroxy-N-methylethanaminium propionate] : 1046.99
CCCCC(=O)[O-].C[NH2+]CCO [2-hydroxy-N-methylethanaminium pentanoate] : 991.18

---

Conditions: 315.91 K; 101.33 kPa; Liquid; Pulse-echo method
endpoint: speed of sound (m/s)

CCCCC(=O)[O-].C[NH2+]CCO [2-hydroxy-N-methylethanaminium pentanoate] : 1493.8
CC(C)C(=O)[O-].C[NH2+]CCO [2-hydroxy-N-methylethanaminium isobutyrate] : 1561.2
CCC(=O)[O-].C[NH2+]CCO [2-hydroxy-N-methylethanaminium propionate] : 1637.6
C[NH2+]CCO.O=C[O-] [2-hydroxy-N-methylethanaminium formate] : 1780.7
CCCC(=O)[O-].C[NH2+]CCO [N-methyl-2-hydroxyethylammonium butanoate] : 1559
